system: E. coli ATCC 25922; test: Phototoxicity test c.1) (LED array 430-435 nm, CFU count by Miles and Misra); assay type: cell-based, Escherichia coli; conditions: Escherichia coli, ATCC25922, light or radiation study, 25 min; 50 μM; incubation period 25 min (lower value); light dose 33.8 J/cm^2, approx. 435 nm, 60 min at 9.4 mW/cm^2; vs reference control; read-out: Effectiveness against E. Coli: Reduction in CFU in log10 at concentration of 50 μM
Where a name gives a salt, the structure may show the parent alone.
Listed below: log reduction at 50 µM values for each entry.

The examples below pair each entry with its known result.
INSERT INTO results (molecule, result) VALUES
  ('NCCCOc1ccc(/C=C/C(=O)CC(=O)/C=C/c2ccc(OCCCN)c(OCc3ccccc3)c2)cc1OCc1ccccc1 [Curcumin 04 hydrochloride]', '> 4'),
  ('COc1ccc(/C=C/C(=O)CC(=O)/C=C/c2ccc(OCCN)c(OC)c2)cc1OC [Curcumin 11b hydrochloride]', '> 3'),
  ('COc1cc(/C=C/C(=O)CC(=O)/C=C/c2ccc(OCCNC(=N)N)c(OC)c2)ccc1OCCNC(=N)N [Curcumin 10b hydrochloride]', '> 6'),
  ('Cl.Cl.Cl.Cl.NCCOc1ccc(/C=C/C(=O)CC(=O)/C=C/c2ccc(OCCN)c(OCCN)c2)cc1OCCN [Curcumin 03 hydrochloride]', '> 7'),
  ('NCCOc1ccc(/C=C/C(=O)CC(=O)/C=C/c2ccc(OCCN)c3ccccc23)c2ccccc12 [Curcumin 12a hydrochloride]', '> 6'),
  ('COc1cc(/C=C/C(=O)CC(=O)/C=C/c2ccc(OCCOCCN)c(OC)c2)ccc1OCCOCCN [Curcumin 02 hydrochloride]', '> 7');

Dear colleague, I am looking for the recorded log reduction at 50 µM of the following molecule: Cc1cc(/C=C/C(=O)CC(=O)/C=C/c2ccc(OCCN)c(C)c2)ccc1OCCN [Curcumin 01e hydrochloride]
> 7

And the next one, COc1cc(/C=C/C(=O)C2CCC/C(=C\c3ccc(OCCN)c(OC)c3)C2=O)ccc1OCCN (stereo not shown) [Curcumin 09b hydrochloride] ?
> 2

And the next one, NCCOc1cc(/C=C/C(=O)CC(=O)/C=C/c2ccc(OCCOCCOCCO)c(OCCN)c2)ccc1OCCOCCOCCO [Curcumin 08 hydrochloride] ?
> 1

And the next one, COc1cc(/C=C/C(=O)CC(=O)/C=C/c2ccc(OCCC[n+]3ccccc3)c(OC)c2)ccc1OCCC[n+]1ccccc1 [Curcumin 10c hydrochloride] ?
> 7

And the next one, NCCOc1ccc(/C=C/C(=O)CC(=O)/C=C/c2ccc(OCCN)cc2)cc1 [Curcumin 0 hydrochloride] ?
> 6

And the next one, COc1cc(/C(C)=C(\C)C(=O)CC(=O)/C(C)=C(\C)c2ccc(OCCN)c(OC)c2)ccc1OCCN [Curcumin 14b hydrochloride] ?
> 1

And the next one, COc1ccc(/C=C/C(=O)CC(=O)/C=C/c2ccc(OCCN)c(OCCN)c2)cc1OCCN [Curcumin 13b hydrochloride] ?
> 7

###

Listed below: log reduction at 50 µM values for each entry.
Tested on: E. coli ATCC 25922
Experiment: Phototoxicity test c.1) (LED array 430-435 nm, CFU count by Miles and Misra)
Type: cell-based, Escherichia coli
Conditions: Escherichia coli, ATCC25922, light or radiation study, 5 min; 50 μM; incubation period 5 min (upper value, *); light dose 33.8 J/cm^2, approx. 435 nm, 60 min at 9.4 mW/cm^2; vs reference control; read-out: Effectiveness against E. Coli: Reduction in CFU in log10 at concentration of 50 μM
Description: A sample of the bacterial cell Staphylococcus. aureus (ATCC number: 25923) or Escherichia. coli (ATCC number: 25922) was removed from a cryo-freeze culture and cultured under aerobic conditions at 37° C. and 175 rpm overnight in an orbital shaker (MAXQ4000, Thermo Scientific, Dubuque, Iowa, USA). […] Subsequently, dilutions (0, 5, 10, […] and 20% v/v of the overnight culture) and their absorptions were measured at 600 nm in triplicate for 100 μL (Infinite 200 M Pro, Tecan, Mannedorf, Switzerland). […]
Structures can show the parent of a compound that is named as a salt.

INSERT INTO assay_data (molecule, result) VALUES
  ('COc1cc(/C=C/C(=O)CC(=O)/C=C/c2cc(I)c(OCCN)c(OC)c2)cc(I)c1OCCN [Curcumin 01c hydrochloride]', '> 3'),
  ('Cc1cc(/C=C/C(=O)CC(=O)/C=C/c2ccc(OCCN)c(C)c2)ccc1OCCN [Curcumin 01e hydrochloride]', '> 4'),
  ('NCCOc1cc(/C=C/C(=O)CC(=O)/C=C/c2cc(OCCN)c(OCCN)c(OCCN)c2)cc(OCCN)c1OCCN [Curcumin 05 hydrochloride]', '> 7'),
  ('COc1ccc(/C=C/C(=O)CC(=O)/C=C/c2ccc(OCCN)c(OC)c2)cc1OC [Curcumin 11b hydrochloride]', '~3'),
  ('COc1cc(/C=C/C(=O)C2CCC/C(=C\c3ccc(OCCN)c(OC)c3)C2=O)ccc1OCCN (stereo not shown) [Curcumin 09b hydrochloride]', '> 1'),
  ('COc1cc(/C=C/C(=O)CC(=O)/C=C/c2ccc(OCCNC(=N)N)c(OC)c2)ccc1OCCNC(=N)N [Curcumin 10b hydrochloride]', '> 7');

Dear colleague, I am looking for the recorded log reduction at 50 µM of the following molecule: NCCCOc1ccc(/C=C/C(=O)CC(=O)/C=C/c2ccc(OCCCN)c(OCc3ccccc3)c2)cc1OCc1ccccc1 [Curcumin 04 hydrochloride]
> 3

###

Listed below: log reduction at 50 µM values for each entry.
system: E. coli ATCC 25922; test: Phototoxicity test c.1) (LED array 430-435 nm, CFU count by Miles and Misra); assay type: cell-based, Escherichia coli; details: Escherichia coli, ATCC25922, light or radiation study, 5 min; 50 μM; incubation period 5 min (upper value, *); light dose 33.8 J/cm^2, approx. 435 nm, 60 min at 9.4 mW/cm^2; vs reference control; read-out: Effectiveness against E. Coli: Reduction in CFU in log10 at concentration of 50 μM
Structures can show the parent of a compound that is named as a salt.

INSERT INTO measurements (compound, measured_on, result) VALUES
  ('NCCOc1ccc(/C=C/C(=O)CC(=O)/C=C/c2ccc(OCCN)cc2)cc1 [Curcumin 0 hydrochloride]', 'E. coli ATCC 25922', '> 6'),
  ('NCCOc1cc(/C=C/C(=O)CC(=O)/C=C/c2ccc(OCCOCCOCCO)c(OCCN)c2)ccc1OCCOCCOCCO [Curcumin 08 hydrochloride]', 'E. coli ATCC 25922', '~1');

// fetch E. coli ATCC 25922 log reduction at 50 µM for COc1cc(/C=C/C(=O)CC(=O)/C=C/c2ccc(OCCC[n+]3ccccc3)c(OC)c2)ccc1OCCC[n+]1ccccc1 [Curcumin 10c hydrochloride]
> 7

And the next one, COc1cc(/C=C/C(=O)CC(=O)/C=C/c2ccc(OCCN)c(OC)c2)ccc1OCCN.Cl.Cl [Curcumin 01a hydrochloride] ?
> 5

And the next one, COc1ccc(/C=C/C(=O)CC(=O)/C=C/c2ccc(OCCN)c(OCCN)c2)cc1OCCN [Curcumin 13b hydrochloride] ?
> 7

And the next one, COc1cc(/C=C/C(=O)CC(=O)/C=C/c2ccc(OCCOCCN)c(OC)c2)ccc1OCCOCCN [Curcumin 02 hydrochloride] ?
> 6

And the next one, COc1cc(OCCN)ccc1/C=C/C(=O)CC(=O)/C=C/c1ccc(OCCN)cc1OC [Curcumin 01b hydrochloride] ?
> 5

And the next one, NCCOc1ccc(/C=C/C(=O)CC(=O)/C=C/c2ccc(OCCN)c3ccccc23)c2ccccc12 [Curcumin 12a hydrochloride] ?
> 6

And the next one, Cl.Cl.Cl.Cl.NCCOc1ccc(/C=C/C(=O)CC(=O)/C=C/c2ccc(OCCN)c(OCCN)c2)cc1OCCN [Curcumin 03 hydrochloride] ?
> 7

###

system: E. coli ATCC 25922; assay: Phototoxicity test c.1) (LED array 430-435 nm, CFU count by Miles and Misra); format: cell-based, Escherichia coli; conditions: Escherichia coli, ATCC25922, light or radiation study, 25 min; 50 μM; incubation period 25 min (lower value); light dose 33.8 J/cm^2, approx. 435 nm, 60 min at 9.4 mW/cm^2; vs reference control; read-out: Effectiveness against E. Coli: Reduction in CFU in log10 at concentration of 50 μM
Where a name gives a salt, the structure may show the parent alone.
Listed below: log reduction at 50 µM values for each entry.

The examples below pair each entry with its known result.
INSERT INTO measurements (compound, result) VALUES
  ('COc1cc(OCCN)ccc1/C=C/C(=O)CC(=O)/C=C/c1ccc(OCCN)cc1OC [Curcumin 01b hydrochloride]', '> 7'),
  ('COc1cc(/C=C/C(=O)CC(=O)/C=C/c2cc(I)c(OCCN)c(OC)c2)cc(I)c1OCCN [Curcumin 01c hydrochloride]', '> 4'),
  ('COc1cc(/C=C/C(=O)CC(=O)/C=C/c2ccc(OCCN)c(OC)c2)ccc1OCCN.Cl.Cl [Curcumin 01a hydrochloride]', '> 5');

Let us move to another entry and its log reduction at 50 µM.
Dear colleague, I am looking for the recorded log reduction at 50 µM of the following compound: NCCOc1cc(/C=C/C(=O)CC(=O)/C=C/c2cc(OCCN)c(OCCN)c(OCCN)c2)cc(OCCN)c1OCCN [Curcumin 05 hydrochloride]
> 6
